Hello, the source for this data is paper PMC2248166, in case you need it.

- ASSAY SYSTEM: HLA A*3001 (Homo sapiens, UniProt P04439, D140H/D185E/E176W/F33S/G80R/H175R/K168Q/R138E/R41S)
- ASSAY REMARKS: biochemical
pIC50: −log10 of the molar value. Where a SMILES comes first, the peptide text is derived from it.
EXPERIMENTAL ENDPOINT: pIC50

compound="CC[C@H](C)[C@H](NC(=O)[C@H](CCCCN)NC(=O)[C@@H](NC(=O)[C@@H](N)CCCNC(=N)N)[C@@H](C)O)C(=O)N1CCC[C@H]1C(=O)N[C@@H](CC(C)C)C(=O)N[C@@H](CO)C(=O)N[C@@H](CCCCN)C(=O)N[C@H](C(=O)O)C(C)C [3102.0039] (H-RTKIPLSKV-OH)" observed_measurement=8.39
compound="CC(C)C[C@H](NC(=O)[C@H](Cc1ccc(O)cc1)NC(=O)[C@H](CO)NC(=O)[C@H](CO)NC(=O)[C@H](CO)NC(=O)[C@@H](NC(=O)[C@@H](N)CO)[C@@H](C)O)C(=O)N[C@@H](Cc1ccc(O)cc1)C(=O)N[C@@H](C)C(=O)O [3102.0171] (H-STSSSYLYA-OH)" observed_measurement=7.89
compound="CSCC[C@H](N)C(=O)N[C@@H](CC(C)C)C(=O)N[C@@H](CCCNC(=N)N)C(=O)N[C@@H](Cc1ccccc1)C(=O)N[C@@H](C)C(=O)N[C@@H](CC(N)=O)C(=O)N1CCC[C@H]1C(=O)N[C@@H](CC(C)C)C(=O)N[C@@H](CO)C(=O)O [3102.0173] (H-MLRFANPLS-OH)" observed_measurement=9.77
compound="CC[C@H](C)[C@H](NC(=O)[C@H](Cc1ccc(O)cc1)NC(=O)[C@H](C)NC(=O)[C@H](C)NC(=O)[C@H](Cc1c[nH]cn1)NC(=O)[C@H](CO)NC(=O)[C@H](CCCCN)NC(=O)[C@H](CO)NC(=O)[C@@H](N)CCSC)C(=O)O [3102.0207] (H-MSKSHAAYI-OH)" observed_measurement=9.64

----------
- ASSAY SYSTEM: HLA A*3001 (Homo sapiens, UniProt P04439, D140H/D185E/E176W/F33S/G80R/H175R/K168Q/R138E/R41S)
- ASSAY REMARKS: biochemical
Where a SMILES comes first, the peptide text is derived from it.
EXPERIMENTAL ENDPOINT: IC50 (nM)

compound="CC[C@H](C)[C@H](NC(=O)[C@H](Cc1c[nH]cn1)NC(=O)[C@H](Cc1ccccc1)NC(=O)[C@H](CO)NC(=O)[C@@H](NC(=O)[C@@H](N)CCCCN)[C@@H](C)O)C(=O)N[C@H](C(=O)N[C@@H](Cc1ccccc1)C(=O)N[C@@H](CC(C)C)C(=O)O)[C@@H](C)CC [3102.0050] (H-KTSFHIIFL-OH)" observed_measurement=25
compound="CSCC[C@H](NC(=O)[C@H](CCC(=O)O)NC(=O)[C@H](CO)NC(=O)[C@H](CC(C)C)NC(=O)[C@H](CCCNC(=N)N)NC(=O)[C@@H](NC(=O)[C@@H](N)CCCCN)[C@@H](C)O)C(=O)N[C@@H](CC(C)C)C(=O)N[C@@H](CO)C(=O)O [3102.0174] (H-KTRLSEMLS-OH)" observed_measurement=0.45
compound="CSCC[C@H](N)C(=O)N[C@@H](CC(C)C)C(=O)N[C@@H](CCCNC(=N)N)C(=O)N[C@H](C(=O)N[C@H](C(=O)N[C@@H](Cc1ccc(O)cc1)C(=O)N[C@@H](CS)C(=O)N[C@@H](CC(N)=O)C(=O)N[C@@H](CCCCN)C(=O)O)C(C)C)[C@@H](C)O [3102.0024] (H-MLRTVYCNK-OH)" observed_measurement=0.26
